Each recorded value in this set is attributed to ChEMBL document CHEMBL4725306.

# TARGET_UNDER_TEST: UniProt Q92753
# Sequence (Q92753 whole entry, the tested form may be a part): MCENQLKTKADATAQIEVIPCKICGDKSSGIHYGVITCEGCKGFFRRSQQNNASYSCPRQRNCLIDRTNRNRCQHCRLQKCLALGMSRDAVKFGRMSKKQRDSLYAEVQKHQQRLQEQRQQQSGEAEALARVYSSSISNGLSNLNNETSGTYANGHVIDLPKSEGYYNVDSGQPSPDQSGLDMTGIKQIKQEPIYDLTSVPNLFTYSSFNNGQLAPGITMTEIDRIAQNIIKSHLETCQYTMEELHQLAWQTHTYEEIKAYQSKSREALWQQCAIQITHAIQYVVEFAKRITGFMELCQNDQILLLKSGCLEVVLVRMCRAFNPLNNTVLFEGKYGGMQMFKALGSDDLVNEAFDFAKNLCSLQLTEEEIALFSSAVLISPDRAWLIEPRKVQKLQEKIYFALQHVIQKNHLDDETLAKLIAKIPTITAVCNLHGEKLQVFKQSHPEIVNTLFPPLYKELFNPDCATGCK
# TEST_METHOD_NOTES: Inverse agonist activity at ROR-beta (unknown origin) expressed in Jurkat cells by gal4 reporter assay
pEC50: −log10 of the molar value.
METRIC_NAME: pEC50

The reported UniProt Q92753 pEC50 of "C[C@]1(c2ccc(F)cc2)CN(C(=O)C2CCN(C(=O)CC#N)CC2)C[C@H]1c1ccc(C(O)(C(F)(F)F)C(F)(F)F)cc1" is < 4.40

====

Items are presented alongside their recorded Emax.
# TARGET_UNDER_TEST: PXR (Homo sapiens)
# Sequence (O75469 whole entry): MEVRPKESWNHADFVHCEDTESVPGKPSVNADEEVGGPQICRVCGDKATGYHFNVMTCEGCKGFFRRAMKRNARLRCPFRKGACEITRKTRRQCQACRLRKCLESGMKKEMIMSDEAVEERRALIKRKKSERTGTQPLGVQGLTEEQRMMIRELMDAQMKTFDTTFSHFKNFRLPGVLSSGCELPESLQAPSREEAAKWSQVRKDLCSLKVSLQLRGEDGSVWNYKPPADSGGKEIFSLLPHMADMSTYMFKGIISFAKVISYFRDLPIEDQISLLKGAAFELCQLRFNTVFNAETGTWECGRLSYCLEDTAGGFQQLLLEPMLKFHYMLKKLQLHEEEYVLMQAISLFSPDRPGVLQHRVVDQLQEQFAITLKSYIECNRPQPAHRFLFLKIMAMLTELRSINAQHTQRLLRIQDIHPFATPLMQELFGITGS
# TEST_METHOD_NOTES: Activation of PXR (unknown origin) relative to rifampicin
# PARTICULARS: read-out: %max
Answer format: numeric, % implied, no suffix.

Lookup result for C[C@]1(c2ccccc2)CN(CC(N)=O)C[C@H]1c1ccc(C(O)(C(F)(F)F)C(F)(F)F)cc1 (racemic) ; measured Emax: 96

Lookup result for "C[C@]1(c2ccc(F)cc2)CN(C(=O)C2CCN(C(=O)C(N)=O)CC2)C[C@H]1c1ccc(C(O)(C(F)(F)F)C(F)(F)F)cc1" ; measured Emax: 73

Lookup result for "C[C@]1(c2ccc(F)cc2)CN(C(=O)C2CCN(C(N)=O)CC2)C[C@H]1c1ccc(C(O)(C(F)(F)F)C(F)(F)F)cc1" ; measured Emax: 72

Lookup result for CC(=O)N1C[C@@H](c2ccc(C(O)(C(F)(F)F)C(F)(F)F)cc2)[C@@](C)(c2ccccc2)C1 (racemic) ; measured Emax: 110

New cases:
Lookup result for C[C@]1(c2ccccc2)CN(C(=O)c2ccccc2)C[C@H]1c1ccc(C(O)(C(F)(F)F)C(F)(F)F)cc1 (racemic) ; measured Emax: 93

Lookup result for "C[C@]1(c2ccc(F)cc2)CN(C(=O)C2CCN(C(=O)CC#N)CC2)C[C@H]1c1ccc(C(O)(C(F)(F)F)C(F)(F)F)cc1" ; measured Emax: 46

Lookup result for CCNC(=O)N1C[C@@H](c2ccc(C(O)(C(F)(F)F)C(F)(F)F)cc2)[C@@](C)(c2ccccc2)C1 (racemic) ; measured Emax: 73

Lookup result for C[C@]1(c2ccc(F)cc2)CN(C(=O)NCc2ccccc2)C[C@H]1c1ccc(C(O)(C(F)(F)F)C(F)(F)F)cc1 (racemic) ; measured Emax: 79

Lookup result for "CC(=O)N1CCC(C(=O)N2C[C@@H](c3ccc(C(F)(C(F)(F)F)C(F)(F)F)cc3)[C@@](C)(c3ccc(F)cc3)C2)CC1" ; measured Emax: 15

Lookup result for "C[C@@]1(c2ccc(F)cc2)CN(C(=O)NCc2ccccc2)C[C@@H]1c1ccc(C(O)(C(F)(F)F)C(F)(F)F)cc1" ; measured Emax: 80

Lookup result for "COc1ccc(CNC(=O)N2C[C@@H](c3ccc(C(O)(C(F)(F)F)C(F)(F)F)cc3)[C@@](C)(c3ccc(F)cc3)C2)cc1" ; measured Emax: 84

Lookup result for "CCS(=O)(=O)c1ccc(CNC(=O)N2C[C@@H](c3ccc(C(O)(C(F)(F)F)C(F)(F)F)cc3)[C@@](C)(c3ccc(F)cc3)C2)cc1" ; measured Emax: 100

Lookup result for C[C@]1(c2ccccc2)CN(S(C)(=O)=O)C[C@H]1c1ccc(C(O)(C(F)(F)F)C(F)(F)F)cc1 (racemic) ; measured Emax: 110
